# target.under.test: M-CSF endogenously expressed on MDA-MB-231 cells (human) (UniProt P09603)
# assay.method.text: FACS, MDA-MB-231 cells endogenously expressing M-CSF (n = 2)

binder: Madeleine, IgG1_D265A (antibody, V domains shown) VH: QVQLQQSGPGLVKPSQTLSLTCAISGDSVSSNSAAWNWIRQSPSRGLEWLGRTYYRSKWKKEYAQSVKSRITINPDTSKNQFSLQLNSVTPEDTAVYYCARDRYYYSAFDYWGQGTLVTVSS VL: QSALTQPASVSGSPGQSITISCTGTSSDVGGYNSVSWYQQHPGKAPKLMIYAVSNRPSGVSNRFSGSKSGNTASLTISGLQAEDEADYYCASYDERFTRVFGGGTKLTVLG
EC50: 10 nM

binder: Blanche, IgG1_D265A (antibody, V domains shown) VH: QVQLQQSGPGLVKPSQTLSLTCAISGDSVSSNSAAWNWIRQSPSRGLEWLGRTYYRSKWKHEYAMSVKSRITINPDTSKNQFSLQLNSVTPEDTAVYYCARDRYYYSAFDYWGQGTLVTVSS VL: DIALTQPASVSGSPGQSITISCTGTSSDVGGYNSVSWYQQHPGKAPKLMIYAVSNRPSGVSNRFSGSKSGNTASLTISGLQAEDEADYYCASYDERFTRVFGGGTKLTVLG
EC50: 10 nM
